Measured values drawn from the supplement of paper PMC11246515 for this set.

test: total protein half-life in vivo (active degradation + dilution); higher = more stable protein; conditions: wild type E. coli NCM3722; growth: C-lim chemostat; doubling time 6 h
Items are presented alongside their recorded total protein half-life in vivo.
Measurement Name: total protein half-life in vivo (h)

1) MSKAGASLATCYGPVSADVIAKAENIRLLILDVDGVLSDGLIYMGNNGEELKAFNVRDGYGIRCALTSDIEVAIITGRKAKLVEDRCATLGITHLYQGQSNKLIAFSDLLEKLAIAPENVAYVGDDLIDWPVMEKVGLSVAVADAHPLLIPRADYVTRIAGGRGAVREVCDLLLLAQGKLDEAKGQSI [P0ABZ4]; 4.33
2) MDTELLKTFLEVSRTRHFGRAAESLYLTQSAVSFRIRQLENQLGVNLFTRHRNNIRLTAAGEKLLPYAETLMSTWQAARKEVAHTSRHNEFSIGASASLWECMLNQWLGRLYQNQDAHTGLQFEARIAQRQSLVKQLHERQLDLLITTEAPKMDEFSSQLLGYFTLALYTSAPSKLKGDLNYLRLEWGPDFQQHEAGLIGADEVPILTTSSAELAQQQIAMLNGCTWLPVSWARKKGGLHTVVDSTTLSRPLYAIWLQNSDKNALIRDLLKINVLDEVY [P0A8R9]; 5.68
3) MTITDLVLILFIAALLAFAIYDQFIMPRRNGPTLLAIPLLRRGRIDSVIFVGLIVILIYNNVTNHGALITTWLLSALALMGFYIFWIRVPKIIFKQKGFFFANVWIEYSRIKAMNLSEDGVLVMQLEQRRLLIRVRNIDDLEKIYKLLVSTQ; 4.79
4) MFRPFLNSLMLGSLFFPFIAIAGSTVQGGVIHFYGQIVEPACDVSTQSSPVEMNCPQNGSIPGKTYSSKALMSGNVKNAQIASVKVQYLDKQKKLAVMNIEYN; 0.225
5) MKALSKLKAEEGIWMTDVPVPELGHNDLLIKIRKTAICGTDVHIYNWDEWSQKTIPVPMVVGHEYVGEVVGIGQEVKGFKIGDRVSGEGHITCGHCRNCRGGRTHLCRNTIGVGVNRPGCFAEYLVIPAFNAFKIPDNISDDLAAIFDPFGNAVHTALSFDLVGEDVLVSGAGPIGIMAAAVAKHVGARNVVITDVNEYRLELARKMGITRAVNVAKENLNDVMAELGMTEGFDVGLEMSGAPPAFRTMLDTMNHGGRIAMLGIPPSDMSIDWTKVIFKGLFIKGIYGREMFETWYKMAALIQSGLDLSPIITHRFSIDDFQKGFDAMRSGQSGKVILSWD; 4.37
6) MSVRLVLAKGREKSLLRRHPWVFSGAVARMEGKASLGETIDIVDHQGKWLARGAYSPASQIRARVWTFDPSESIDIAFFSRRLQQAQKWRDWLAQKDGLDSYRLIAGESDGLPGITIDRFGNFLVLQLLSAGAEYQRAALISALQTLYPECSIYDRSDVAVRKKEGMELTQGPVTGELPPALLPIEEHGMKLLVDIQHGHKTGYYLDQRDSRLATRRYVENKRVLNCFSYTGGFAVSALMGGCSQVVSVDTSQEALDIARQNVELNKLDLSKAEFVRDDVFKLLRTYRDRGEKFDVIVMDPPKFVENKSQLMGACRGYKDINMLAIQLLNEGGILLTFSCSGLMTSDLFQKIIADAAIDAGRDVQFIEQFRQAADHPVIATYPEGLYLKGFACRVM; 6.57
7) MQFNIPTLLTLFRVILIPFFVLVFYLPVTWSPFAAALIFCVAAVTDWFDGFLARRWNQSTRFGAFLDPVADKVLVAIAMVLVTEHYHSWWVTLPAATMIAREIIISALREWMAELGKRSSVAVSWIGKVKTTAQMVALAWLLWRPNIWVEYAGIALFFVAAVLTLWSMLQYLSAARADLLDQ [P0ABF8]; 5.64
8) MTPTIELICGHRSIRHFTDEPISEAQREAIINSARATSSSSFLQCSSIIRITDKALREELVTLTGGQKHVAQAAEFWVFCADFNRHLQICPDAQLGLAEQLLLGVVDTAMMAQNALIAAESLGLGGVYIGGLRNNIEAVTKLLKLPQHVLPLFGLCLGWPADNPDLKPRLPASILVHENSYQPLDKGALAQYDEQLAEYYLTRGSNNRRDTWSDHIRRTIIKESRPFILDYLHKQGWATR; 4.8
9) MSETASWQPSASIPNLLKRAAIMAEIRRFFADRGVLEVETPCMSQATVTDIHLVPFETRFVGPGHSQGMNLWLMTSPEYHMKRLLVAGCGPVFQLCRSFRNEEMGRYHNPEFTMLEWYRPHYDMYRLMNEVDDLLQQVLDCPAAESLSYQQAFLRYLEIDPLSADKTQLREVAAKLDLSNVADTEEDRDTLLQLLFTFGVEPNIGKEKPTFVYHFPASQASLAQISTEDHRVAERFEVYYKGIELANGFHELTDAREQQQRFEQDNRKRAARGLPQHPIDQNLIEALKVGMPDCSGVALGVDRLVMLALGAETLAEVIAFSVDRA [P0A8N7]; 6.14
10) MWIGIISLFPEMFRAITDYGVTGRAVKNGLLSIQSWSPRDFTHDRHRTVDDRPYGGGPGMLMMVQPLRDAIHAAKAAAGEGAKVIYLSPQGRKLDQAGVSELATNQKLILVCGRYEGIDERVIQTEIDEEWSIGDYVLSGGELPAMTLIDSVSRFIPGVLGHEASATEDSFAEGLLDCPHYTRPEVLEGMEVPPVLLSGNHAEIRRWRLKQSLGRTWLRRPELLENLALTEEQARLLAEFKTEHAQQQHKHDGMA [P0A873]; 5.88
11) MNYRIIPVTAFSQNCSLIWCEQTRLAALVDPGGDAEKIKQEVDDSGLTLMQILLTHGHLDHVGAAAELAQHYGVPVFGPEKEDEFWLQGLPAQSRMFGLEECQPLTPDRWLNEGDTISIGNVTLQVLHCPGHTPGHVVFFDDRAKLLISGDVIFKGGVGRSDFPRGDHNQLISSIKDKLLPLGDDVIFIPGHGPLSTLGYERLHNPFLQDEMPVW; 6.22
12) MKILVIGPSWVGDMMMSQSLYRTLQARYPQAIIDVMAPAWCRPLLSRMPEVNEAIPMPLGHGALEIGERRKLGHSLREKRYDRAYVLPNSFKSALVPFFAGIPHRTGWRGEMRYGLLNDVRVLDKEAWPLMVERYIALAYDKGIMRTAQDLPQPLLWPQLQVSEGEKSYTCNQFSLSSERPMIGFCPGAEFGPAKRWPHYHYAELAKQLIDEGYQVVLFGSAKDHEAGNEILAALNTEQQAWCRNLAGETQLDQAVILIAACKAIVTNDSGLMHVAAALNRPLVALYGPSSPDFTPPLSHKARVIRLITGYHKVRKGDAAEGYHQSLIDITPQRVLEELNALLLQEEA; 5.58
